Test system: human red blood cells
Type: cell-based
No end group written: not given here.
REPORTED ENDPOINT: Therapeutic window HC50/MIC(MRSA)

Here is how some substances turned out for Therapeutic window HC50/MIC(MRSA).
- VRKPPYLPRPRPRPLGGGKIILRIRWR-NH2 [hyP1CoG2]: >62.8
- KIILRIRWRGGGVRKPPYLPRPRPRPL-NH2 [hyP1CoG1]: >62.8

Consider the additional substance presented here.
**Query** Fill in Therapeutic window HC50/MIC(MRSA) for record RWRRPIRRRPIRPPFWRKGKGKGKRRVRWIIW-NH2 [hyP7B5GK]
**Result** >120

----------
Tested on: human red blood cells
Format: cell-based
Details: red cells of human, 1 h
No end group written: not given here.
HC50 (peptide concentration needed to induce haemolysis in human red blood cells at 50%) values by entry

- VRKPPYLPRPRPRPLGGGKRRVRWIIW-NH2 [hyP7CoG1]: >154 µM
- KRRVRWIIW-NH2 [optP7]: >195 µM
- KIILRIRWRGGGVRKPPYLPRPRPRPL-NH2 [hyP1CoG1]: >157 µM
- RWRRPIRRRPIRPPFWRKGKGKGKRRVRWIIW-NH2 [hyP7B5GK]: >120 µM
- RWRRPIRRRPIRPPFWRGGGKRRVRWIIW-NH2 [hyP7B5G]: 102 µM
- KIILRIRWR-NH2 [optP1]: 205 µM

**Query** Fill in HC50 (peptide concentration needed to induce haemolysis in human red blood cells at 50%) for record RWRRPIRRRPIRPPFWR-NH2 [Bac5-v291]
**Result** >278 µM

**Query** Fill in HC50 (peptide concentration needed to induce haemolysis in human red blood cells at 50%) for record KRRVRWIIWGGGVRKPPYLPRPRPRPL-NH2 [hyP7CoG2]
**Result** >154 µM
